subject-of-test: hKIF18A (1-374) (Homo sapiens (Human))
Sequence (Q8NI77 whole entry, looked up): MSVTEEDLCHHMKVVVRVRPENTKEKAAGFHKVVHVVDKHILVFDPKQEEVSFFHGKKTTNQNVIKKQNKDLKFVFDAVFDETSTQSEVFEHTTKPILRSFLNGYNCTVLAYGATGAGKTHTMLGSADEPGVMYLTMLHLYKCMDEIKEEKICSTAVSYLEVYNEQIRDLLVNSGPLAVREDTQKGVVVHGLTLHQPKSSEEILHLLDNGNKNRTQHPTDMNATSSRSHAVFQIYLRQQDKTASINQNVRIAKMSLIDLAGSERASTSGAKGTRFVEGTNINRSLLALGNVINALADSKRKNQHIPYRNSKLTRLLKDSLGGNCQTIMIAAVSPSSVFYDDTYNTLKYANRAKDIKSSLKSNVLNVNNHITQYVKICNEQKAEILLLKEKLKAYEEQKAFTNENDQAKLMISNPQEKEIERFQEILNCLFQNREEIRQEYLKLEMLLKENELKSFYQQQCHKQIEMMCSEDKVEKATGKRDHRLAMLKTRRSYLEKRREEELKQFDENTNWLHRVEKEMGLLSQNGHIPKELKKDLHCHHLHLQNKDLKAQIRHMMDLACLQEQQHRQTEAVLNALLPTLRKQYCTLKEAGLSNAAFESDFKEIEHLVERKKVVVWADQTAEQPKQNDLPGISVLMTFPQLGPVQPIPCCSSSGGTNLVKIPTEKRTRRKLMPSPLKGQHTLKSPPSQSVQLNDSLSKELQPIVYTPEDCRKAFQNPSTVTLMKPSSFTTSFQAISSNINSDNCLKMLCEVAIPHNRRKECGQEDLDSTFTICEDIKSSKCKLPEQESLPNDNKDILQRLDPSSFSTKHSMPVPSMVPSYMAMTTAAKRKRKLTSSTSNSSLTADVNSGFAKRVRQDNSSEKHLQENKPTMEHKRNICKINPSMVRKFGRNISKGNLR
Sequence (Q2XVP4 whole entry partner, looked up): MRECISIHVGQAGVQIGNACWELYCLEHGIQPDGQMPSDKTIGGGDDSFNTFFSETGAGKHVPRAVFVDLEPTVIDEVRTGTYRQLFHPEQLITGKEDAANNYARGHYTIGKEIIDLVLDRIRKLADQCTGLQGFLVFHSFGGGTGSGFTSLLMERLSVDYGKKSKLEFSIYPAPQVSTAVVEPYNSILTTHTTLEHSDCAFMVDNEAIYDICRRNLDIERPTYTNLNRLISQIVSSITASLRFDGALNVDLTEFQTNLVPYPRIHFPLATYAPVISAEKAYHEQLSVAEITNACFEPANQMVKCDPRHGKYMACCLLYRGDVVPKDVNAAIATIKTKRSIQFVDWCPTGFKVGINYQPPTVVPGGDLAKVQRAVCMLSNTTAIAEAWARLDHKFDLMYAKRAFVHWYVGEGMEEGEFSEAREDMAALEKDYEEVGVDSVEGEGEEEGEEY
Sequence (P02554 whole entry partner, looked up): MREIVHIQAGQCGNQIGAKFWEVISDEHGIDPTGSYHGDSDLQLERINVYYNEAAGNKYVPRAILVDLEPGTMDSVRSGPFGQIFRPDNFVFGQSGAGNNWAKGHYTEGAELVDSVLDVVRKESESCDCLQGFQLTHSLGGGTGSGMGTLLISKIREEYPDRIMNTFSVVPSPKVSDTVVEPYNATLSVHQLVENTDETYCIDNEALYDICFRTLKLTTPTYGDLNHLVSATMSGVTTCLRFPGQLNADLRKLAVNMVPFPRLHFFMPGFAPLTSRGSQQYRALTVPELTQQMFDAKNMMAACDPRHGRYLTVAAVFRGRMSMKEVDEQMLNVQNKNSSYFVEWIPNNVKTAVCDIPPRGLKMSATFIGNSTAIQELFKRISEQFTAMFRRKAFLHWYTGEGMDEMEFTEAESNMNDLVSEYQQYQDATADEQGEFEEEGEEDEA
assay-comment: Inhibition of KIF18A microtubule-dependent ATPase activity (ADP-Glo)
test-parameters: KIF18A microtubule-dependent ATPase activity, biochemical assay
pIC50: −log10 of the molar value.

| compound | pIC50 |
| --- | --- |
| CC(C)(C)NS(=O)(=O)c1cccc(C(=O)N2CC3(CCC(F)(F)CC3)c3cc(NS(C)(=O)=O)ccc32)c1 | 7.29 |
| CS(=O)(=O)Nc1ccc2c(c1)C1(CCC3(CC3)CC1)CN2C(=O)c1cccc(S(=N)(=O)C2CCCC2)c1 (single isomer, unassigned) [Compound 287b] | 7.92 |
| O=C(c1cccc(S(=O)(=O)N2CCC(F)(F)CC2)c1)N1CC2(CCCC2)c2ccccc21 | 5.80 |
| CCS(=O)(=O)Nc1ccc2c(c1)C1(CCC3(CC3)CC1)CN2C(=O)c1cccc(S(=O)(=O)NC2CCC2)c1 | 8.03 |
| CS(=O)(=O)Nc1ccc2c(c1)C1(CCC3(CC3)CC1)CN2C(=O)c1cccc(C(O)C2CC(F)(F)C2)c1 (stereo not shown) | 8.06 |
| CC(C)(C)NS(=O)(=O)c1cccc(C(=O)N2CC3(CCC4(CC4)CC3)c3ccccc32)c1 | 6.57 |
| O=C(c1cccc(S(=O)(=O)N2CCC(F)(F)CC2)c1)N1CC2(CCC3(CC3)CC2)c2cc(NS(=O)(=O)CCO)ccc21 | 7.66 |
| CC(C)(C)[C@H](O)c1ccc(C(=O)N2CC3(CCC4(CC4)CC3)c3cc(NS(C)(=O)=O)ccc32)o1 (single isomer, unassigned) [Compound 373b] | 6.77 |
| CCC(C)NS(=O)(=O)c1cccc(C(=O)N2CC3(CCC4(CC4)CC3)c3cc(NS(C)(=O)=O)ccc32)c1 (stereo not shown) | 7.82 |
| CN(C1CC(F)(F)C1)S(=O)(=O)c1cccc(C(=O)N2CC3(CCC4(CC4)CC3)c3cc(NS(C)(=O)=O)ccc32)c1 | 7.29 |
| CC(C)S(=O)(=O)c1cccc(C(=O)N2CC3(CCC4(CC4)CC3)c3cc(NS(C)(=O)=O)ccc32)c1 | 7.30 |
| CS(=O)(=O)Nc1ccc2c(c1)C1(CCC3(CC3)CC1)CN2C(=O)c1cccc(S(=O)(=O)N2CC[C@H](F)C2)c1 [(S)-Compound 239] | 7.82 |
| CS(=O)(=O)Nc1ccc2c(c1)C1(CCCCC1)CN2C(=O)c1cccc(S(=O)(=O)N2CC3(CCC3)C2)c1 | 7.35 |
| CC(C)(C)NS(=O)(=O)c1csc(C(=O)N2CC3(CCC4(CC4)CC3)c3cc(NS(C)(=O)=O)ccc32)c1 | 7.11 |
| COc1ccc(C(=O)N2CC3(CCC4(CC4)CC3)c3cc(NS(C)(=O)=O)ccc32)cc1S(=O)(=O)NC(C)(C)C | 7.77 |
| CS(=O)(=O)Nc1ccc2c(c1)C1(CCC3(CC3)CC1)CN2C(=O)c1cccc(CN2C[C@@H]3[C@H](C2)C3(F)F)c1 | 7.55 |
| CS(=O)(=O)Nc1ccc2c(c1)C1(CCC3(CC3)CC1)CN2C(=O)c1cc(C(O)C2CCCC2)cs1 (stereo not shown) | 8.29 |
| CC1(C)OCC1NS(=O)(=O)c1cccc(C(=O)N2CC3(CCC4(CC4)CC3)c3cc(NS(C)(=O)=O)ccc32)c1 (stereo not shown) | 7.12 |
| CS(=O)(=O)Nc1ccc2c(c1)C1(CCC3(CC3)CC1)CN2C(=O)c1cccc(S(=O)(=O)C2CC(F)(F)C2)c1 | 7.68 |
| CS(=O)(=O)Nc1ccc2c(c1)C1(CCC3(CC3)CC1)CN2C(=O)c1ccc(S(=O)(=O)N2CC3(CCC3)C2)o1 | 8.20 |
| CS(=O)(=O)Nc1ccc2c(c1)C1(CCC3(CC3)CC1)CN2C(=O)c1cccc(S(=O)(=O)C2CCCC2)c1 | 8.13 |
| CS(=O)(=O)Nc1ccc2c(c1)C1(CCCCC1)CN2C(=O)c1cccc(S(=O)(=O)N2CCC2)c1 | 6.57 |
